Data credit: patent US20220054432A1

Experiment: Transfer into each organ: carotenoid concentration in organs of cynomolgus monkeys (Test Example 3)
Assay type: in vivo
Settings: cynomolgus monkey, in vivo, 50 mg/kg, Concentration in organ: Brain, Cerebral cortex
Experimental: As experimental animals, cynomolgus monkeys were used. […] The dose in each administration was calculated based on the latest body weight at each administration time point (the body weight was measured on the day of initiation of acclimation, the day of end of acclimation, the day of initiation of administration, and before administration on day 8 of administration using an electric balance (HP-40K or GP-40K, both of which are manufactured by A&D Company, Limited)). […]
observationType: concentration at 10 days (ng/g)
Entry rule: numbers only, all in ng/g.

Determine from records and report concentration at 10 days for CC1=C(/C=C/C(C)=C/C=C/C(C)=C/C=C/C=C(C)/C=C/C=C(C)/C=C/C2=C(C)C(=O)C(O)CC2(C)C)C(C)(C)CC(O)C1=O (stereo not drawn) [astaxanthin, 3,3′-dihydroxy-β,β-carotene-4,4′-dione] 4.8

###

Assay: Transfer into each organ: carotenoid concentration in organs of cynomolgus monkeys (Test Example 3)
Type: in vivo
Settings: cynomolgus monkey, brain, medulla oblongata, oral, 50 mg/kg, 50 mg/kg intragastric once daily for 10 days, after last administration, read-out: Concentration in organ: Brain, Medulla oblongata
observationType: concentration at 10 days (ng/g)
Entry rule: numbers only, all in ng/g.

Determine from records and report concentration at 10 days for CC1=C(/C=C/C(C)=C/C=C/C(C)=C/C=C/C=C(C)/C=C/C=C(C)/C=C/C2=C(C)C(=O)C(O)CC2(C)C)C(C)(C)CC(O)C1 (stereo not drawn) [adonixanthin, 3,3′-dihydroxy-β,β-caroten-4-one] 27.6

###

Experiment: Transfer into each organ: carotenoid concentration in organs of cynomolgus monkeys (Test Example 3)
Format: in vivo
Conditions: cynomolgus monkey, in vivo, 50 mg/kg, Concentration in organ: Heart
observationType: concentration at 10 days

Determine from records and report concentration at 10 days for CC1=C(/C=C/C(C)=C/C=C/C(C)=C/C=C/C=C(C)/C=C/C=C(C)/C=C/C2=C(C)C(=O)C(O)CC2(C)C)C(C)(C)CC(O)C1=O (stereo not drawn) [astaxanthin, 3,3′-dihydroxy-β,β-carotene-4,4′-dione] 15.7 ng/g

###

Assay: Transfer into each organ: carotenoid concentration in organs of cynomolgus monkeys (Test Example 3)
Format: in vivo
Conditions: cynomolgus monkey, brain, cerebellum, oral, 50 mg/kg, 50 mg/kg intragastric once daily for 10 days, after last administration, read-out: Concentration in organ: Brain, Cerebellum
observationType: concentration at 10 days (ng/g)
Entry rule: numbers only, all in ng/g.

Determine from records and report concentration at 10 days for CC1=C(/C=C/C(C)=C/C=C/C(C)=C/C=C/C=C(C)/C=C/C=C(C)/C=C/C2=C(C)C(=O)C(O)CC2(C)C)C(C)(C)CC(O)C1 (stereo not drawn) [adonixanthin, 3,3′-dihydroxy-β,β-caroten-4-one] 57.5

###

Experiment: Transfer into each organ: carotenoid concentration in organs of cynomolgus monkeys (Test Example 3)
Assay type: in vivo
Settings: cynomolgus monkey, retina, oral, 50 mg/kg, 50 mg/kg intragastric once daily for 10 days, after last administration, read-out: Concentration in organ: Retina
observationType: concentration at 10 days (ng/g)
Entry rule: numbers only, all in ng/g.

Determine from records and report concentration at 10 days for CC1=C(/C=C/C(C)=C/C=C/C(C)=C/C=C/C=C(C)/C=C/C=C(C)/C=C/C2=C(C)C(=O)C(O)CC2(C)C)C(C)(C)CC(O)C1 (stereo not drawn) [adonixanthin, 3,3′-dihydroxy-β,β-caroten-4-one] 689

###

Assay: Transfer into each organ: carotenoid concentration in organs of cynomolgus monkeys (Test Example 3)
Format: in vivo
Conditions: cynomolgus monkey, kidney (right), oral, 50 mg/kg, 50 mg/kg intragastric once daily for 10 days, after last administration, read-out: Concentration in organ: Kidney (right)
observationType: concentration at 10 days (ng/g)
Entry rule: numbers only, all in ng/g.

Determine from records and report concentration at 10 days for CC1=C(/C=C/C(C)=C/C=C/C(C)=C/C=C/C=C(C)/C=C/C=C(C)/C=C/C2=C(C)C(=O)C(O)CC2(C)C)C(C)(C)CC(O)C1 (stereo not drawn) [adonixanthin, 3,3′-dihydroxy-β,β-caroten-4-one] 1530

###

Experiment: Transfer into each organ: carotenoid concentration in organs of cynomolgus monkeys (Test Example 3)
Assay type: in vivo
Details: cynomolgus monkey, brain, cerebral medulla, oral, 50 mg/kg, 50 mg/kg intragastric once daily for 10 days, after last administration, read-out: Concentration in organ: Brain, Cerebral medulla
observationType: concentration at 10 days (ng/g)
Entry rule: numbers only, all in ng/g.

Determine from records and report concentration at 10 days for CC1=C(/C=C/C(C)=C/C=C/C(C)=C/C=C/C=C(C)/C=C/C=C(C)/C=C/C2=C(C)C(=O)C(O)CC2(C)C)C(C)(C)CC(O)C1 (stereo not drawn) [adonixanthin, 3,3′-dihydroxy-β,β-caroten-4-one] 53.2

###

Assay: Transfer into each organ: carotenoid concentration in organs of mice (Test Example 1)
Type: in vivo, ICR strain mice
Conditions: ICR, mouse, spleen, po, 50 mg/kg orally once daily for 10 days, after last administration, mean, read-out: Concentration in organ: Spleen
observationType: concentration at 10 days

[
  {
    "compound": "CC1=C(/C=C/C(C)=C/C=C/C(C)=C/C=C/C=C(C)/C=C/C=C(C)/C=C/C2=C(C)C(=O)C(O)CC2(C)C)C(C)(C)CC(O)C1 (stereo not drawn) [adonixanthin, 3,3′-dihydroxy-β,β-caroten-4-one]",
    "observationType": "concentration at 10 days",
    "result": "277 ng/g"
  }
]

# evaluate next
Determine from records and report concentration at 10 days for CC1=C(/C=C/C(C)=C/C=C/C(C)=C/C=C/C=C(C)/C=C/C=C(C)/C=C/C2=C(C)C(=O)C(O)CC2(C)C)C(C)(C)CC(O)C1=O (stereo not drawn) [astaxanthin, 3,3′-dihydroxy-β,β-carotene-4,4′-dione] 87.8 ng/g
